# system: human hGHSR1a-vasopressin receptor 2 tail chimera
# run-description: β-arr2^GFP translocation, compound screening (U2OS)
# experimental-context: secondary assay of HTS hits; read-out: Beta-arrestin translocation EC50
value-kind: EC50 (nM)

Example cases with answers are listed next.
molecule="C=CCOc1ccc(C2c3c(oc4ccc(C)cc4c3=O)C(=O)N2CCCN2CCOCC2)cc1 (centres unmarked) [NCGC00101909]" system="human hGHSR1a-vasopressin receptor 2 tail chimera" unit_info=nM endpoint_result=254
molecule="COc1cccc(C2c3c(oc4ccc(C)cc4c3=O)C(=O)N2CCCN2CCOCC2)c1OC (centres unmarked) [NCGC00136166]" system="human hGHSR1a-vasopressin receptor 2 tail chimera" unit_info=nM endpoint_result=71.6
molecule="CCOc1ccc(C2c3c(oc4ccc(C)cc4c3=O)C(=O)N2CCCN(C)C)cc1OC (centres unmarked) [NCGC00141956]" system="human hGHSR1a-vasopressin receptor 2 tail chimera" unit_info=nM endpoint_result=2310
molecule="CCCCOCCCn1c(N)c(C(=O)OC(C)COC)c2nc3ccccc3nc21 (centres unmarked) [MLS000036469]" system="human hGHSR1a-vasopressin receptor 2 tail chimera" unit_info=nM endpoint_result=147000

[a] CCCOc1ccc(C2c3c(oc4ccccc4c3=O)C(=O)N2c2ccc(C)cn2)cc1OCC (centres unmarked) [NCGC00101673]
[b] Cc1ccc2oc3c(c(=O)c2c1)C(c1ccc([N+](=O)[O-])cc1)N(CCCN1CCOCC1)C3=O (centres unmarked) [NCGC00119776]
INPUT: // select label with min value of measured EC50 from [ a , b ] Respond using the label that marks the chosen record.
OUTPUT: b

---

# run-description: Pharmacokinetic analysis in C57BL/6 mice
# experimental-context: male, C57BL/6, mouse, in vivo, ip, 5 mg/kg
value-kind: bioavailability (%)
A number alone suffices; assume %.

INPUT: Field request: bioavailability | item: COc1ccc(C(=O)c2c(C(=O)NCCCN(C)C)oc3ccc(Cl)cc3c2=O)cc1OC
OUTPUT: 27

---

# Test system: human hGHSR1a-vasopressin receptor 2 tail chimera
# run-description: β-arr2^GFP translocation, compound screening (U2OS)
# Type: cell-based
# experimental-context: secondary assay of HTS hits; normalized to L585
value-kind: Beta-arrestin translocation ECmax (%)

Examples with their reported Beta-arrestin translocation ECmax (%) follow.
compound="CCCOc1cccc(C2c3c(oc4cc(C)c(C)cc4c3=O)C(=O)N2CCCN2CCOCC2)c1 (stereo not shown)" value_kind="Beta-arrestin translocation ECmax (%)" unit_info=% endpoint_result=20
compound="C[C@@H](O)CNC(C)(C)CC(=O)N[C@@H]1CCc2ccccc2N(Cc2ccc(-c3ccccc3-c3nn[nH]n3)cc2)C1=O [Example L626.585, reference compound]" value_kind="Beta-arrestin translocation ECmax (%)" unit_info=% endpoint_result=100

[1] C=CCOc1ccc(C2c3c(oc4ccc(C)cc4c3=O)C(=O)N2CCCN2CCOCC2)cc1 (stereo not shown)
[2] CCOc1cc(C2c3c(oc4ccccc4c3=O)C(=O)N2Cc2ccc(OC)cc2)ccc1O (stereo not shown)
[3] CCCOc1cccc(C2c3c(oc4ccc(F)cc4c3=O)C(=O)N2CCCN2CCOCC2)c1 (stereo not shown)
INPUT: Please list these compounds in decreasing order of Beta-arrestin translocation ECmax (%). Ranked list of labels, please, in the requested order.
OUTPUT: 3, 1, 2
(3: 99%, 1: 64%, 2: 9%)

[P] COc1ccc(C2c3c(oc4ccc(F)cc4c3=O)C(=O)N2Cc2ccc3c(c2)OCO3)cc1 (stereo not shown)
[Q] COc1ccc(OC)c(C2c3c(oc4ccc(C)cc4c3=O)C(=O)N2CCCN(C)C)c1 (stereo not shown)
[R] CCOc1ccc(C2c3c(oc4ccc(C)cc4c3=O)C(=O)N2CCCN(C)C)cc1 (stereo not shown)
[S] Cc1ccc2oc3c(c(=O)c2c1)C(c1cccc(Cl)c1)N(CCCN1CCOCC1)C3=O (stereo not shown)
INPUT: Order the records by Beta-arrestin translocation ECmax (%), with each subsequent value no larger than the one before. Please write the labels in the order that was asked for.
OUTPUT: S, R, Q, P

[P] Cc1ccc2oc3c(c(=O)c2c1)C(c1ccc([N+](=O)[O-])cc1)N(CCCN1CCOCC1)C3=O (stereo not shown)
[Q] CCCCOc1ccc(C2c3c(oc4ccc(C)cc4c3=O)C(=O)N2CCCN(C)C)cc1OCC (stereo not shown)
INPUT: Response body: label of entry with the larger Beta-arrestin translocation ECmax (%); valid values P , Q . Please indicate the selected item by its label.
OUTPUT: Q
(Q: 83%, P: 26%)

[a] Cc1ccc2oc3c(c(=O)c2c1)C(c1ccc(O)cc1)N(CCCN(C)C)C3=O (stereo not shown)
[b] CCCOc1ccc(C2c3c(oc4cc(C)c(C)cc4c3=O)C(=O)N2CCCN2CCOCC2)cc1 (stereo not shown)
[c] COc1ccc(C2c3c(oc4ccc(C)cc4c3=O)C(=O)N2CCCN2CCOCC2)cc1OC (stereo not shown)
[d] CCOc1cccc(C2c3c(oc4ccc(F)cc4c3=O)C(=O)N2CCOC)c1 (stereo not shown)
INPUT: Place the items in sequence of falling Beta-arrestin translocation ECmax (%). Answer by listing the labels in the order asked for.
OUTPUT: c, a, b, d
